// provenance: patent US11286268B1

test.target: recombinant eIF4E (Homo sapiens (Human))
Sequence (P06730 whole entry): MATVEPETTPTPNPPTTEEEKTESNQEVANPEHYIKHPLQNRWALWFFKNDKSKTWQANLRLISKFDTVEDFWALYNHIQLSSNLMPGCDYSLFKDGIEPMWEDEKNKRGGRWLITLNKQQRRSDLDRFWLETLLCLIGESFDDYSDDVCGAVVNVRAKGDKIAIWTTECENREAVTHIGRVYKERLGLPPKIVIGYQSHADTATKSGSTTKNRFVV
assay.comment: Fluorescence polarization competition assay for eIF4E binding potency
settings: fluorescence polarization competition, 75 nM recombinant eIF4E, 20 nM EDA-m7GDP-ATTO-550; IC50 class; read-out: elF4E FP
pIC50: −log10 of the molar value.
measurement.kind: pIC50

Cc1cc(-c2cc(Cl)ccc2OCCn2c(C)nc3cnc(N4CCN(C)CC4)c(C#N)c3c2=O)c2scc(C(=O)O)c2n1 :: > 7.30

Task item: For the molecule shown here, Cc1cc(-c2cc(Cl)ccc2OCCn2c(C)nc3cc(Cl)c(-c4cc(F)cnc4C)c(C#N)c3c2=O)c2scc(C(=O)O)c2n1 , give the reported pIC50.
Reply: > 7.30

Task item: For the molecule shown here, Cc1nc2cc(F)c(F)c(C#N)c2c(=O)n1CCOc1ccc(Cl)cc1-c1ccnc2c(-c3nnn[nH]3)csc12 , give the reported pIC50.
Reply: 6.00 to 7.30

Task item: For the molecule shown here, Cc1nc2c(F)cc(S(C)(=O)=O)c(C#N)c2c(=O)n1CCOc1ccc(Cl)cc1-c1ccnc2c(C(=O)O)csc12 , give the reported pIC50.
Reply: 6.00 to 7.30
